Reference source: ChEMBL document CHEMBL3046885

test system: Rhizoctonia solani; test: Antifungal activity against Rhizoctonia solani J-1 after 72 hr by turbimetric assay; type: functional; conditions: Rhizoctonia solani, J-1, 72 h; read-out: ED50 (the source's name)
parameterMeasured: EC50 (µM)
Number only, in µM; omit the unit.

Worked set:
> print(dat)
                        structurenotation  parametermeasured  unitannotation  number
1               CC1=Cc2cccc(C)c2C(=O)C1=O               EC50              µM    3.76
2   COc1cc(O)c2c(C=O)c(O)c(O)c(C(C)C)c2c1               EC50              µM    13.1
3      Cc1cc2c3c(c(O)c(O)c(C(C)C)c3c1)CO2               EC50              µM    3.52
4  COc1c(C)cc2c3c(c(O)c(O)c(C(C)C)c13)CO2               EC50              µM    2.52

For Cc1cc2c(C(C)C)c(O)c(O)c(C=O)c2c(O)c1-c1c(C)cc2c(C(C)C)c(O)c(O)c(C=O)c2c1O the compound record lists EC50 as 25.1

For Cc1cc(O)c2c(C=O)c(O)c(O)c(C(C)C)c2c1 the compound record lists EC50 as 21.4
